- TESTED_SYSTEM: P-gp (Homo sapiens)
- TEST_PROTOCOL: in vitro
Overview of recorded inhibition at 10 µM for various compounds
Lab book: enter the figure in %, no units written.

COc1cc(C2Oc3cc([C@H]4Oc5cc(O)cc(O)c5C(=O)[C@@H]4O)ccc3OC2CO)ccc1O (some centres unmarked)	71.4

Kindly consider the entry below.
Q. Fill blank: measured inhibition at 10 µM of the compound COc1cc(-c2oc3cc(O)cc(O)c3c(=O)c2O)ccc1O is ____.
A. 19.5

====

- TESTED_SYSTEM: P-gp (Homo sapiens, UniProt P08183)
- Sequence (P08183 whole entry): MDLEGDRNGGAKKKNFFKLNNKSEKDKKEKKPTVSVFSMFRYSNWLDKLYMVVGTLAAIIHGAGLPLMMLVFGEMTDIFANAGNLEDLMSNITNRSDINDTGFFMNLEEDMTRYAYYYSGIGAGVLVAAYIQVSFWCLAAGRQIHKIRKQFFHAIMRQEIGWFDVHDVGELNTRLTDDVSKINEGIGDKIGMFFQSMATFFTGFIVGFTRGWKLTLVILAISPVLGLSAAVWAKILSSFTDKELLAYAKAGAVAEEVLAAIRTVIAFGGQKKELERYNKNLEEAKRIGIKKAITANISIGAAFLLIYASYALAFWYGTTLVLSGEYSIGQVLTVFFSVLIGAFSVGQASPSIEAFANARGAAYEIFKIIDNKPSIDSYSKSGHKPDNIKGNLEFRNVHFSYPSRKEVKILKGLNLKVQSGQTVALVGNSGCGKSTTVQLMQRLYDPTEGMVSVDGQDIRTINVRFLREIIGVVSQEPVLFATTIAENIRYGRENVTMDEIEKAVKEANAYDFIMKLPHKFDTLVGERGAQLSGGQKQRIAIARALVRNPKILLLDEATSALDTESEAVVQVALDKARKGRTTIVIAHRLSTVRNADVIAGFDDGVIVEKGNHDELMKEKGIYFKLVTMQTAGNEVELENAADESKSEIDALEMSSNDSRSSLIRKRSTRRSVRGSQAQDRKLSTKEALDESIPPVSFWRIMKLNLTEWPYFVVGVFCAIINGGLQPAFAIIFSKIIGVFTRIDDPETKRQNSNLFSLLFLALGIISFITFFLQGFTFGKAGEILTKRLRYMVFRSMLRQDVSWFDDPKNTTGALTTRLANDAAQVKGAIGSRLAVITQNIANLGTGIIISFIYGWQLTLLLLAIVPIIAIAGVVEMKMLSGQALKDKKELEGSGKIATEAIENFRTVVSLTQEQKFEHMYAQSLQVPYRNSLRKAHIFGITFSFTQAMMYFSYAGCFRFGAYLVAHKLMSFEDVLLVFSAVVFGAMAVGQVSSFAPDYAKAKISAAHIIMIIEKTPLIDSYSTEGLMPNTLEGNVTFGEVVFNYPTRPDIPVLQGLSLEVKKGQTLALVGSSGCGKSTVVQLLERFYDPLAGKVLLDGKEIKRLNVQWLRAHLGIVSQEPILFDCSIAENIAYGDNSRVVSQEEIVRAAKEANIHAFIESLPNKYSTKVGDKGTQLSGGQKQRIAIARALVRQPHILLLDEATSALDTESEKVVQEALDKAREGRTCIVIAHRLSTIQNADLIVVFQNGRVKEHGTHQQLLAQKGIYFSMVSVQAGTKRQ
- TEST_PROTOCOL: Calcein-AM efflux assay in KB CH^R 8-5 cells
OBSERVATION_TYPE: IC50 (µM)
Lab book: enter the figure in µM, no units written.

O=c1c(O)cc([C@H]2Oc3cc(O)cc(O)c3C[C@H]2O)cc2c([C@H]3Oc4cc(O)cc(O)c4C[C@H]3O)cc(O)c(O)c12 [Theaflavine]	20

Kindly consider the entry below.
Q. Give IC50 (P-gp (Homo sapiens, UniProt P08183)) of the following molecule: COc1ccc(-c2oc3cc(O)cc(O)c3c(=O)c2O)cc1O [Tamarixetin]
A. 46

====

- TESTED_SYSTEM: P-gp (Homo sapiens, UniProt P08183)
- TEST_PROTOCOL: Rhodamine 123 efflux assay in KB CH^R 8-5 cells
- ASSAY_CONTEXT: human, KB CH^R 8-5 cells, probe rhodamine 123 (0.5 μg/ml)
Each record gets a class by inhibition at 45 min, 10 µM: bin A (below 20%), bin B (20% to below 50%), bin C (50% or more)

Observe how each entry below is paired with its result.
O=c1cc(-c2ccc(O)c(O)c2)oc2cc(O)cc(O)c12 [Luteolin]	bin A
O=c1cc(-c2ccc(O)cc2)oc2cc(O)cc(O)c12 [Apigenin]	bin B
O=c1c(O)c(-c2ccc(O)cc2)oc2cc(O)cc(O)c12 [Kaempferol]	bin B
O=c1c(O)c(-c2ccc(O)cc2O)oc2cc(O)cc(O)c12 [Morin]	bin B
COc1cc(O)c2c(=O)c(OC)c(-c3ccc(OC)c(OC)c3)oc2c1 [Retusin]	bin A
O=c1cc(-c2ccccc2)oc2cc(O)c(O)c(O)c12 [Baicalein]	bin A
O=c1c(O)cc([C@H]2Oc3cc(O)cc(O)c3C[C@H]2O)cc2c([C@H]3Oc4cc(O)cc(O)c4C[C@H]3O)cc(O)c(O)c12 [Theaflavine]	bin C
Oc1ccc(-c2[o+]c3cc(O)cc(O)c3cc2O)cc1 [Pelargonidin]	bin B
O=c1c(O)c(-c2cc(O)c(O)c(O)c2)oc2cc(O)cc(O)c12 [Myricetin]	bin C
C[C@@H]1O[C@@H](O[C@H]2[C@H](Oc3cc(O)c4c(c3)O[C@H](c3ccc(O)cc3)CC4=O)O[C@H](CO)[C@@H](O)[C@@H]2O)[C@H](O)[C@H](O)[C@H]1O [Naringin]	bin C

Q. For the record COc1ccc(-c2oc3cc(O)cc(O)c3c(=O)c2O)cc1O [Tamarixetin] , report the class its inhibition at 45 min, 10 µM corresponds to.
A. bin C

Q. For the record O=c1c(O[C@@H]2O[C@H](CO)[C@@H](O)[C@H](O)[C@H]2O)c(-c2ccc(O)c(O)c2)oc2cc(O)cc(O)c12 [Isoquercitrin] , report the class its inhibition at 45 min, 10 µM corresponds to.
A. bin A

Q. For the record O=c1c(O)c(-c2ccc(O)c(O)c2)oc2cc(O)ccc12 [Fistein, Fisetin] , report the class its inhibition at 45 min, 10 µM corresponds to.
A. bin A
